# Tested on: NCI-H23
# Protocol Details: relative viability (nuclei count vs DMSO), 5 days (fraction); higher = more cells survive
# Settings: first compound 0.8 µM
Measured Parameter: relative viability

Compound: Cc1cnc(-c2cnc(NCCNc3ccc(C#N)cn3)nc2-c2ccc(Cl)cc2Cl)[nH]1 + C[C@@H](Oc1cc(-c2cnn(C3CCNCC3)c2)cnc1N)c1c(Cl)ccc(F)c1Cl [Crizotinib] (partner 1 µM)
Subject Of Test: NCI-H23
Value Observed: 0.638
//
Compound: O=c1[nH]c2ccccc2n1C1CCN(CCCC(c2ccc(F)cc2)c2ccc(F)cc2)CC1 [Pimozide] + CS(=O)(=O)N1CCN(Cc2cc3nc(-c4cccc5[nH]ncc45)nc(N4CCOCC4)c3s2)CC1 [Pictilisib] (partner 1 µM)
Subject Of Test: NCI-H23
Value Observed: 0.448
//
Compound: Cc1cnc(-c2cnc(NCCNc3ccc(C#N)cn3)nc2-c2ccc(Cl)cc2Cl)[nH]1 + NC(=O)Nc1cc(-c2cccc(F)c2)sc1C(=O)N[C@H]1CCCNC1 [AZD7762] (partner 0.2 µM)
Subject Of Test: NCI-H23
Value Observed: 0.247
//
Compound: Cc1cnc(-c2cnc(NCCNc3ccc(C#N)cn3)nc2-c2ccc(Cl)cc2Cl)[nH]1 + CC(=O)Nc1cccc(-n2c(=O)n(C3CC3)c(=O)c3c(Nc4ccc(I)cc4F)n(C)c(=O)c(C)c32)c1 [Trametinib] (partner 0.02 µM)
Subject Of Test: NCI-H23
Value Observed: 0.451
